Test: yeast display, Sf9 membrane polyspecificity reagent, FACS + sequencing; frameworks hold sequencing errors
REPORTED METRIC: polyreactivity (PSR sort gate)

input: I would be grateful if you could share the reported polyreactivity (PSR sort gate) for QVQLVESGGGLVQAGGSLRLSCAASGNTFGYNAMGWYRQAPGKERELVAAISSSGTRTYYADSVKGRFTISRDNAKNTVYLQMNSLKPEDTAVYYCNARSTRYKFGYWGQGTQVTVSS .
output: high polyreactivity

input: I would be grateful if you could share the reported polyreactivity (PSR sort gate) for QVQLVESGGGLVQAGGILRLSCAASGFTFYRNAMGWYRQAPGKERELVAAISIRSGRTYYADSLKGRFTISRDNAKNSVYLQMNSLKPEDTAVYYCNKVRLPRDPYNYWGQGTQVTVSS .
output: high polyreactivity

====

Assay: yeast display, Sf9 membrane polyspecificity reagent, FACS + sequencing; frameworks hold sequencing errors
REPORTED METRIC: polyreactivity (PSR sort gate)

Observe how each entry below is paired with its result.
input: I would be grateful if you could share the reported polyreactivity (PSR sort gate) for QVQLVESGGGLVQAGGSLRLSCAASGSTFRYYAMGWYRQAPGKERELVAAISRSGGRTYYADSVKGRFTISRDNAKNTAYLQMNRLKPEDTAVYYCAVVVWWFTGCLGPYDYWGKGTQVTVSS .
output: high polyreactivity

input: I would be grateful if you could share the reported polyreactivity (PSR sort gate) for QVQLVESGGGLVQAGGSLRLSCAASGRIFQKYAMGWYRQAPGKESELVAAISSGDSTYADSVKGRFTISRDNAKNTVYLQMNSLIPEDTAVYYCAVDLYDPWWYSYIGEYEYWGQGTQVSVSS .
output: low polyreactivity

input: I would be grateful if you could share the reported polyreactivity (PSR sort gate) for QVQLQESGGGLVQAGGSLRLSCAASGTIFRFRYMGWHRQAPGKERELVAGINGGTTTYYADSVIGRFTISRDNAKNTVYLHMNCLKPDDTAVYNCAAGASRLTYYDYWGQGTQVTVSS .
output: low polyreactivity

input: I would be grateful if you could share the reported polyreactivity (PSR sort gate) for QVQLVESGGGLVQAVGSLRLSCAASGRIFRVNAMGWYRQAPGKERELVASITSGGSTHYADSVKGRFTISRDNAKNTVYLQMNSLKPEDTAVYYCNVAYGLLWISPGGDYWGQGTQVTVSS .
output: low polyreactivity

input: I would be grateful if you could share the reported polyreactivity (PSR sort gate) for QVQLVESGGGLVQAGGSLRLSCAASGSTFDTNAMGWYRQAPGKERELVAAISASGGSTYYADSVKGRFTISRDNAKNTVYLQMNSLKPEDTAVYYCAATSGRAFKYDYWGQGTQVTVSS .
output: high polyreactivity

input: I would be grateful if you could share the reported polyreactivity (PSR sort gate) for QVQLVESGGGLGQAGGSLRLSCAASGFTFWYYGRGWYRQAPGKERELVAAITSSGGRTSYADSVKGRFTISRDNAKNTVYLQMNSLKPEETADYYCAALYSYYSLYDDYDYWGQGTQVTVSS .
output: high polyreactivity

More entries:
input: I would be grateful if you could share the reported polyreactivity (PSR sort gate) for QVQLVESGGGLVQAGGSLRLSCAASGSTFGNNAMGWYRQAPGKERELVATIDDTTVSTNYADSVKGRFTISRDNAKNTVYLQMNSLKPEDTAVYYCAADDVDGSPYDYWGQGTQVTVSS .
output: low polyreactivity

====

Assay: yeast display, Sf9 membrane polyspecificity reagent, FACS + sequencing; frameworks hold sequencing errors
REPORTED METRIC: polyreactivity (PSR sort gate)

Observe how each entry below is paired with its result.
input: I would be grateful if you could share the reported polyreactivity (PSR sort gate) for QVQLVESPGRLVQAGGSLRLSCDPTGRTFKIYALGSSRQAPGKESELVAAIRRSGGNTYYADSVKGRFTISRDNAKNTVYLQMNSLKPEDTAVYYCAVGRGSLRGRTDGGYWGQGTQVTVSS .
output: high polyreactivity

input: I would be grateful if you could share the reported polyreactivity (PSR sort gate) for QVQLVESGGGLVQAGGSLRLSCAASGSIFWYNAMGWYRQAPGKESELVAAISWDGGSTYYADSVKGRFTISRDNAKNTVYLQMNSLKPEDTAVYYCNRVYIVWYTRYVVSGWYDYWGQGTEVTVSS .
output: high polyreactivity

input: I would be grateful if you could share the reported polyreactivity (PSR sort gate) for QVQLVESGGGLVQAGGSLRLSCAASGRTFQFYVMGWYRQAPGKERELVASIRSGGSTNYADSVKGRFTISRDNAKNTVYLQMNSLKPEDTAVYYCAARVASPYYRYDYWGQGTQVTVSS .
output: low polyreactivity

input: I would be grateful if you could share the reported polyreactivity (PSR sort gate) for QVQLVESGGGLVQAGGSLRLSCAASGSIFYRNVMGWYRPAPGKERELVAVITSDGSTNYADSVKGRFTISRDNAKNTVYLQMNSLKPEVTAVYYCNAHYAFYGPGYPIYWIYEYWGQGTQVTVSS .
output: low polyreactivity

input: I would be grateful if you could share the reported polyreactivity (PSR sort gate) for QVQLVESGGGLVQAGGSLRLSCAASGRTFYPYAMGWYRQAPGKERELVARISASGGSTYYADSVKGRFTISRDNAKNTVYLQMNSLKPEDTAVYYCARESFWRSLMDYWGQGTQVTVSS .
output: high polyreactivity

input: I would be grateful if you could share the reported polyreactivity (PSR sort gate) for QDQLVESGGGLVQAGGSLRLSCAASGRIFTGNAMGWYRQAHGKERELVAAISASGSSTYYADSVKGRFTISRDNAKNTVYLQMNSLKPEDTAVYYCAADGWYGYYYWGQGTLVTVSS .
output: high polyreactivity

input: I would be grateful if you could share the reported polyreactivity (PSR sort gate) for QVQLVESGGGLVQAGGSLRLSCAASGLIFVANAMGWYRQAPGKERELVAAISRSGGITYYADSVKGRFTISRDNAKNTVYLQMNSLKPEDTAVYYCAAELVYFFIYDYWGQGTQVTVSS .
output: low polyreactivity

input: I would be grateful if you could share the reported polyreactivity (PSR sort gate) for QVQLVESGGGLVQAGGSLRLSCAASGRTFNGYAMGWYRQAPGKERELVASITLRGGSTYYADSVKGRFTISRDNAKNTVYLQMNSLKPEDTAVYYCAVGKFVRYPGRWRYRYDYWGQGTQVTVSS .
output: high polyreactivity

More entries:
input: I would be grateful if you could share the reported polyreactivity (PSR sort gate) for QVQLVESGGGLVQAGGSLRLSCAASGLIFRWYAMGWSRQAPGKEWELVAAINYSGGRTYYADSVKGRFTISRDNAKNTVYLQMNSLKPEDTAVYYCAADGTYVWGSEEGNYWGQGTQVTVSS .
output: low polyreactivity

input: I would be grateful if you could share the reported polyreactivity (PSR sort gate) for QVQLVESGGGLVQAGGSLRFSCAASGRTFNWYAMGWYRQAPGKERELVAAISSRGGSTYADSVKGRFTISRDNAKNTVYLQMNSLKPEDTAVYYCAARHHGTKYDYWGQGTQVTVSS .
output: low polyreactivity

input: I would be grateful if you could share the reported polyreactivity (PSR sort gate) for QVQLVESGGGLVQAGGSLRLSCAASGRIFATNAMGWYRQAPGKERELVATITRSAGRTYYADSVKGRFTISRDNAKYTVYLQMNSLKPEDTAVYYCAASYWDTEPGYREYDYWGQGSQVTVSS .
output: low polyreactivity

====

Experiment: yeast display, Sf9 membrane polyspecificity reagent, FACS + sequencing; frameworks hold sequencing errors
REPORTED METRIC: polyreactivity (PSR sort gate)

Observe how each entry below is paired with its result.
input: I would be grateful if you could share the reported polyreactivity (PSR sort gate) for QVQLVESGGGLVQAGGSLRLSCAASGFIFYRYARGWYRQAPGQERELVAAITTSGARTYYADSVKGRFTISRDNAKNTVYLLMNSLKPEDTAGYSCAASPTPRVKMDYWGQGTQVTVSS .
output: low polyreactivity

input: I would be grateful if you could share the reported polyreactivity (PSR sort gate) for QVQLVESGGGVVQAGGSLRLSCAATGSIFISYDTGLYRQAPGKESELVAAITWSGDSTYYADSVKARFTISRDNAKNSVYLQMNSLKPEDTAVYYCAADWYFRNQRGYYWGQGTQVTVSS .
output: low polyreactivity

input: I would be grateful if you could share the reported polyreactivity (PSR sort gate) for QVQLVESGGGLVQAGGSLRLSCAASGIIFSYYARGWYRQAPGKDRELVAAISSSGVSTNYADSVKGRFTISRDNAKNTVYLQMTSLKPEDTAVYYCAADYGSWSNWGYEYWGQGTQVTVSS .
output: high polyreactivity

input: I would be grateful if you could share the reported polyreactivity (PSR sort gate) for QVQLVESGGGLVQAGGSLRLSCAASGFIFRYNAMAWYRQAPGKERELVAAIDSGGSTYYADSVKGRFTISRDNAKNTVYLQMNSMKPEDNAVYYCNAVVEASYPCVDYWGQGTQVTVSS .
output: low polyreactivity

input: I would be grateful if you could share the reported polyreactivity (PSR sort gate) for QVQLVESGGGLVQAGGSLRLSCAASGYTFYINGMGWSRQAPGKERELVAVITWSSGSTYYADSVKGRFTISRDNAKNTVYLQMKSLKPEDTAVYYCAADVTYEDGAWTLQYDYWGQGTQVTVSA .
output: high polyreactivity

More entries:
input: I would be grateful if you could share the reported polyreactivity (PSR sort gate) for QVQLVESGGGLVQAGGSISLSCAASGYIFHVYAMGWYRQAPGKERELVAAITSSGGSTYYADSVKGRFTISRDNAKNTVYLQMNSLKPEDTAVYYCAAAPCSFRYRYVVFTFGYWGQGTQVTVSS .
output: high polyreactivity

input: I would be grateful if you could share the reported polyreactivity (PSR sort gate) for QVQLVESGGGLVQAGGSLRLSCAASGRTFSGYAMGGDIQAPGKERELVAAITARSGSTYYADSVKGRFTISRDNAKNTVYLLMNSLKPEDTAVYYCNAPRYAARFDYWGQGTQVTVSS .
output: high polyreactivity

input: I would be grateful if you could share the reported polyreactivity (PSR sort gate) for QVQLVESGGGLVQAGGSLRLSCAASGITFPINTMGWYRQAPGKERELVAGIDWTGGSTYYADSVKGRFTISRDNAKIPVYLLMNSLKPEHTAVYYCAKTRRRLLTRYDYWGQGTQVTVSS .
output: low polyreactivity
